Where do the numbers come from? From patent US10065967B2.

# target_system: Active Human ERK2 (hERK2) (Homo sapiens (Human))
# Sequence (P28482 whole entry): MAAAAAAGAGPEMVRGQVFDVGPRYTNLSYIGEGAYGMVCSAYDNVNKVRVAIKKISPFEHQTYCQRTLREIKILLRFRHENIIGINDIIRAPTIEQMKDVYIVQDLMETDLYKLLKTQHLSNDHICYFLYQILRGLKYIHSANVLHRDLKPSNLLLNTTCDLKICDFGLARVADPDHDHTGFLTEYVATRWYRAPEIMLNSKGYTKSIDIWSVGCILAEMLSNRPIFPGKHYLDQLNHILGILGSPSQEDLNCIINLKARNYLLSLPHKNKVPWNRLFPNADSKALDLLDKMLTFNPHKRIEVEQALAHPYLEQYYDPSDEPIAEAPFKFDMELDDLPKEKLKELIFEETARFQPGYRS
Counter-ions that a name gives are not always drawn.
Exam item: assign YES to entries whose IC50 is below 0.6 nM and NO to entries at or above 0.6 nM. Note that a value of exactly 0.6 nM receives NO.

>>> classification("Cc1cc(-c2n[nH]c3cc4c(cc23)CN(Cc2ccccc2)C(=O)N4)ccn1 [Example 14]")
"YES"
>>> classification("Cc1cc(-c2n[nH]c3cc4c(cc23)CCN([C@H](C)c2ccc(F)cc2)C(=O)N4)ccn1 [Example 12]")
"NO"
>>> classification("Cn1cc(-c2n[nH]c3cc4[nH]c(=O)c(Br)cc4cc23)cn1 [Example 6, trifluoroacetate]")
"YES"
>>> classification("Cc1cc(-c2n[nH]c3cc4c(cc23)CN([C@@H]2CCCCc3ccccc32)C(=O)N4)ccn1 [Example 22]")
"NO"
>>> classification("C[C@H](c1ccccc1)N1Cc2cc3c(N4CCc5ncsc5C4)n[nH]c3cc2NC1=O [Example 47]")
"NO"
>>> classification("C[C@H](c1ccccc1)N1Cc2cc3c(OC4CCOCC4)n[nH]c3cc2NC1=O [Example 39]")
"NO"
>>> classification("COc1n[nH]c2cc3c(cc12)CN([C@H](C)c1ccccc1)C(=O)N3 [Example 35]")
"NO"
>>> classification("COCCOc1n[nH]c2cc3c(cc12)CN([C@H](C)c1ccccc1)C(=O)N3 [Example 36]")
"NO"
>>> classification("Cc1cc(-c2n[nH]c3cc4c(cc23)CCN(Cc2ccc(F)cc2)C(=O)N4O)ccn1 [Example 11]")
"NO"
>>> classification("Cc1cc(-c2n[nH]c3cc4c(cc23)CN([C@H](C)c2ccccc2)C(=O)N4)ccn1 [Example 20, 2,2,2-trifluoroacetate]")
"YES"
>>> classification("C[C@H](c1ccccc1)N1Cc2cc3c(C4CC4)n[nH]c3cc2NC1=O [Example 40]")
"NO"
>>> classification("Cn1cc(-c2n[nH]c3cc4[nH]c(=O)c(Cc5ccccc5)cc4cc23)cn1 [Example 7]")
"YES"
>>> classification("O=c1ccc2cc3cn[nH]c3cc2[nH]1 [Example 5]")
"NO"
>>> classification("Cn1cc(-c2n[nH]c3cc4[nH]c(=O)ccc4cc23)cn1 [Example 4]")
"YES"
